- system_name: T1, protein A (UniProt P38507 37-477)
- T1 construct: also called Protein A superantigen
- experiment_summary: Heat/Cool phage ELISA: phage-displayed VH, 80 C 10 min then 4 C 10 min, captured on coated protein A; signal as % of untreated sample
- Protocol: The aggregation-resistance of clones was analyzed by measuring retention of signal after heat incubation in a phage ELISA format (McCafferty et al., 1990; Jespers et al., 2004). […] After three washes with PBS, bound phage particles were detected using an Extravidin-HRP conjugate (Sigma) and 3,3′,5,5′-tetramethylbenzidine (TMB) substrate. Absorbance was calculated by subtracting measurements at 450 and 650 nm. […]
# Retained binding to protein A (%) per record follows
Answer in %, number only, no unit symbol.

A selection of reference data follows.
DP47 VH S53D (other, name in Kabat numbering) VH: QVQLLESGGGLVQPGGSLRLSCAASGFTFSSYAMSWVRQAPGKGLEWVSAISGDGGSTYYADSVKGRFTISRDNSKNTLYLQMNSLRAEDTAVYYCAKSYGAFDYWGQGTLVTVSS | 3.8
DP47 VH S52D (other, name in Kabat numbering) VH: QVQLLESGGGLVQPGGSLRLSCAASGFTFSSYAMSWVRQAPGKGLEWVSAIDGSGGSTYYADSVKGRFTISRDNSKNTLYLQMNSLRAEDTAVYYCAKSYGAFDYWGQGTLVTVSS | 3.9
DP47 VH A50D (other, name in Kabat numbering) VH: QVQLLESGGGLVQPGGSLRLSCAASGFTFSSYAMSWVRQAPGKGLEWVSDISGSGGSTYYADSVKGRFTISRDNSKNTLYLQMNSLRAEDTAVYYCAKSYGAFDYWGQGTLVTVSS | 2.9

// query # get_value(readout='Retained binding to protein A (%)', item= DP47 VH G54D (other, name in Kabat numbering) VH: QVQLLESGGGLVQPGGSLRLSCAASGFTFSSYAMSWVRQAPGKGLEWVSAISGSDGSTYYADSVKGRFTISRDNSKNTLYLQMNSLRAEDTAVYYCAKSYGAFDYWGQGTLVTVSS )
// result 1.3
